target: WT Spike (SARS-CoV-2, UniProt P0DTC2 16-1213)
Labelling: Kd reported below 9 pM becomes YES; at or above becomes NO.

binder	classLabel
Ab 26 (scFv, V domains shown) VH: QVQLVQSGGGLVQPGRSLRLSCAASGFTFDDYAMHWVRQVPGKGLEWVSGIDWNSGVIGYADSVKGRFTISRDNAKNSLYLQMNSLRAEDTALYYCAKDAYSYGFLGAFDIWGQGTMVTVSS VL: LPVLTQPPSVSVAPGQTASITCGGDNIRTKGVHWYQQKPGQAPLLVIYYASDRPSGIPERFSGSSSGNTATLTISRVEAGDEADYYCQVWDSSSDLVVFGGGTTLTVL	NO
RBD-R3-E1-A5 Ab (Ab_30) (scFv, V domains shown) VH: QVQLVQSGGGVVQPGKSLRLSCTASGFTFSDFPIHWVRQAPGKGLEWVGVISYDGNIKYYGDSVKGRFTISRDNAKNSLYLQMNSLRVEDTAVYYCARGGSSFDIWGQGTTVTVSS VL: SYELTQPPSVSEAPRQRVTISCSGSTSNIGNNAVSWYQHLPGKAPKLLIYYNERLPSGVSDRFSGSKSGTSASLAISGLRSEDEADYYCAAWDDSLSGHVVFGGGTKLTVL	YES
RBD-R3-T1-H3 (Ab_2) (scFv, V domains shown) VH: EVQLVQSGAEVKKPGSSVKVSCKTSGYTFTTSGISWVRQAPGQGLEWMGWISAYNGNTNYAQKLQGRVTMTTDTSTSTAYMELRSLRSDDTAVYYCARDFHLYYGMDVWGKGTLVTVSS VL: QSALTQPPSASGSPGQSVTISCTGTSSDVGAYNYVSWYQQHPGKAPKLLIYDVTKRPPGVPDRFSGSKSGNTASLTVSGLQAEDEADYYCAVWDDGLNGRVVFGGGTKLTVL	NO
S1-RBD-R3-T1-C7 Ab (Ab 29) (scFv, V domains shown) VH: QVQLQQSGPGLVKPSQTLSLTCAISGDSVSSYSDAWNWIRQSPSRGLEWLGRTYYRSKWYNDYAVSVKSRITINPDTSKNQFSLQLSSVTPEDTAVYYCAREIVATTPFRNYYYGMDVWGQGTTVTVSS VL: NFMLTQPHSVSESPGNTVTISCTRTSGSIASNYVQWYQQRPGSSPTTVIFQDKLRPSGVPDRFSGSIDSSSNSASLTISGLKTEDEADYYCQSYDSSSLWVFGGGTKLTVL	NO

# ---- query binder ----
Input: Report whether reported Kd is lower than 9 pM (strictly) for S1-RBD-R3-T1-E2 (Ab7) (scFv, V domains shown) VH: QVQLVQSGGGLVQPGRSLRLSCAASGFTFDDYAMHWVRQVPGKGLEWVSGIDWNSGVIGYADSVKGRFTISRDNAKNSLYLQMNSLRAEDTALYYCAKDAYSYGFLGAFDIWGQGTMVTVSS VL: QPGLTQPPSVSVAPGQTARISCGGNNIGSKSVHWYQQKPGRAPVLVVYEDRGRPSGIPERFSGSNSGNTATLTVSRVEAGDEADYYCQVWDGDSDHYVFATGTKVSIL
Output: YES
